From: the supplement of paper PMC9170038

System: K4 kissing-loop RNA reporter;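 note: bound reporter read as fluorescence of individual clusters on recovered sequencing chips by microscopy, with normalized cluster intensities fitted with a binding model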
measurement.notes: apparent KD of K4 kissing-loop reporter; higher = weaker reporter binding
condition.label: Eterna round: R107; input ligand: none
assay.endpoint: apparent KD of K4 kissing-loop reporter (nM)
Your answer is read as nM, so omit the unit and give the number.

Give its apparent KD of K4 kissing-loop reporter value. Item: CAUAUCAGAUAAGGAUAUAUGGCUCCUCGAGUCCAGUGAUGUUGGGCAACGUUUCAGUGGUGGAUUAUAGAAGGUAUUCACAGAC [theeternabot_sameState_KL_FMN_B_9]
276

Fill blank: measured apparent KD of K4 kissing-loop reporter of the sequence GGGCCUCUGGCUGAUACCAGUGAUGCAGGGUCCGAGACAGGGAGUGAUGUUCCCUGCAGCCACCCUUGGCAGCAGUUUAAGUUUG [Exclusion Theophylline B GF 19] is ____.
122

What value of apparent KD of K4 kissing-loop reporter has been reported for the following sequence? UAAUUUAUGUCUUUAAUUUAAUAAUCAGAUACCAGUGAUUUAUGACACCCUUGGCAGCUGUAUUGAGUGAUGUUCUUAUACUUAA [JR_Nu_ExcTheophyA_Sub021]
171

# apparent KD of K4 kissing-loop reporter lookup, item CCAUCGCUAUUCGAUACCAGUCAUCACAUCUUUGGUGUGAUAAAGGAGUGAUGUUCCCAAGACCCUUGGCAGCGAAUAGUGAUGG [Theophylline B K4 11]
270

For AAUACAGUACAACCGAGUGGAACACAAAUACGAGGACCGGUACGGCCGCCACUCGUGCAGAAUUUCAGUGAUGUUGAAAUACUGC [Exclusion Tryptophan A GF 6] , what is its reported apparent KD of K4 kissing-loop reporter?
122

apparent KD of K4 kissing-loop reporter lookup needed for CCCGGGUCGUCAGGAUAUGAGUGCAGUGAUGUUGCACGGGUCUUUGCAGGCCCUGGUGAGGCGUACUCAGAAGGGACGCCAGGUC [Atazazaed] , thanks.
145
